The measured values listed here are drawn from patent US20220033501A1.

Biological target: T1, human TIM-3 protein on human PBMC (human, UniProt Q8TDQ0 22-301)
T1 sequence: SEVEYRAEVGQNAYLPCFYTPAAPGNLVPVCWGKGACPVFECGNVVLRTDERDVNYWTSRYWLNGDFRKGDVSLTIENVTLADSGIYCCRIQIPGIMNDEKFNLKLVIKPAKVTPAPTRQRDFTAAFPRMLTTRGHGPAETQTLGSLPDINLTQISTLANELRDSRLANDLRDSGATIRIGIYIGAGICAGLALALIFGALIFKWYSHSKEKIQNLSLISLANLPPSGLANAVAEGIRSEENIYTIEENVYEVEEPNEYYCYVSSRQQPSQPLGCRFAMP
Test: cell-based or functional assay
Recorded IFN-γ production, lymphocyte activation assay (donor Y), antibody 10 µg/ml, N = 1 by entry
// return numeric value only (unit: pg/mL, not printed)

Binder: fully human TIM-3 antibody 18D2H2 (antibody, human IgG4, V domains shown, also called antibody number 2) VH: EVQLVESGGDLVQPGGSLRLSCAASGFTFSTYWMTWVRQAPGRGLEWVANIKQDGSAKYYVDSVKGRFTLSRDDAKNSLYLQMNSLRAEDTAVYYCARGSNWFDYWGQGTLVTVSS VL: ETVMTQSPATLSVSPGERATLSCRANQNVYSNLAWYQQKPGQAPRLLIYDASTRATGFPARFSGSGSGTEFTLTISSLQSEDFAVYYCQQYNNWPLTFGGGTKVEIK
Quantitative Readout: 3050

Binder: fully human TIM-3 antibody 57F4E5 (antibody, human IgG4, V domains shown, also called antibody number 7) VH: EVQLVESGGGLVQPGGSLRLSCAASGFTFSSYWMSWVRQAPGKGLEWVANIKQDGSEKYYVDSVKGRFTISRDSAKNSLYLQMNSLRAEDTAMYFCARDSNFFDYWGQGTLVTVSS VL: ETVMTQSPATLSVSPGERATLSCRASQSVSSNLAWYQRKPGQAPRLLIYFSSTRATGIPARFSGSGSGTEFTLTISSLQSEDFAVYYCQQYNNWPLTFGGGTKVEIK
Quantitative Readout: 3960

Binder: fully human TIM-3 antibody 39E5H1 (antibody, human IgG4, V domains shown, also called antibody number 6) VH: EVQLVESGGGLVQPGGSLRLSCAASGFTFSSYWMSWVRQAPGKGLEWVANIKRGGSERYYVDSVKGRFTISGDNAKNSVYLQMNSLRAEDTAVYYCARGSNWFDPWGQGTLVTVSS VL: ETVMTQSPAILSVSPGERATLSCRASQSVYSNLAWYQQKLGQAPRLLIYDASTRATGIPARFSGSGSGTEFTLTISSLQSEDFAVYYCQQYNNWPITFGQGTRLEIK
Quantitative Readout: 3500

Binder: fully human TIM-3 antibody 7A4F10 (antibody, human IgG4, V domains shown, also called antibody number 1) VH: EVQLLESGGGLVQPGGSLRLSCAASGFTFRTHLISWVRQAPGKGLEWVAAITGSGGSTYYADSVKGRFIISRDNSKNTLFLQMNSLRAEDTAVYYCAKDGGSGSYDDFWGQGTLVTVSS VL: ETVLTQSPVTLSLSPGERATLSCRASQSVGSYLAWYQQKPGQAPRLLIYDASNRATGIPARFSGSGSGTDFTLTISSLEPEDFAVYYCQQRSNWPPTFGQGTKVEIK
Quantitative Readout: 3340

Binder: fully human TIM-3 antibody 34B6D8 (antibody, human IgG4, V domains shown, also called antibody number 5) VH: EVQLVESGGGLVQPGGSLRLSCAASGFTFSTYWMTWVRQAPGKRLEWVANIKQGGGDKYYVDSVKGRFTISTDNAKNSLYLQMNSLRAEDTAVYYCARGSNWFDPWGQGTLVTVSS VL: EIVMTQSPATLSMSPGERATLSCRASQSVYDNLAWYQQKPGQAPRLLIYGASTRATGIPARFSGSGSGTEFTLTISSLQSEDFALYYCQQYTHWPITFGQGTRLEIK
Quantitative Readout: 3520

Now consider the entry below.
Which IFN-γ production, lymphocyte activation assay (donor Y), antibody 10 µg/ml, N = 1 reading was recorded for the binder fully human TIM-3 antibody 134H3G6 (antibody, human IgG4, V domains shown, also called antibody number 3) VH: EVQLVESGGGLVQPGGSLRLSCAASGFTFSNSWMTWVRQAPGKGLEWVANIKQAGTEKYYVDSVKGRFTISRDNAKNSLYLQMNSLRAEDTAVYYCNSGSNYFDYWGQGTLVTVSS VL: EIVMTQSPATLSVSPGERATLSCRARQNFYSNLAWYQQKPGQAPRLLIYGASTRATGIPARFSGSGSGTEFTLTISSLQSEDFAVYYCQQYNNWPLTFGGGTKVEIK ?
3400
